Molecular target: T1, PUF4 RNA-binding domain (Saccharomyces cerevisiae, UniProt P25339 537-888)
T1 sequence: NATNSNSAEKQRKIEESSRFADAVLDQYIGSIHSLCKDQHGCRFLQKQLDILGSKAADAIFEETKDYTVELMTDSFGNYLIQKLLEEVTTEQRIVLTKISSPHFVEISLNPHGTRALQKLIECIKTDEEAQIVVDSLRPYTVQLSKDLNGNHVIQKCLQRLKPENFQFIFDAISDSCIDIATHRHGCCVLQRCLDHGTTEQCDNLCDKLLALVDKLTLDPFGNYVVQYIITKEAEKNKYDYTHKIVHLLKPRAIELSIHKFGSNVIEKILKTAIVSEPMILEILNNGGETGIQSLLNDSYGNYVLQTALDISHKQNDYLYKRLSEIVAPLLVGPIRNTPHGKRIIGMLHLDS
Test: Mg; RNA-MaP; 20 mM Na-HEPES pH 7.4, 30 mM KOAc, 0.75 mM MgCl2, 0.1% Tween-20, 5% glycerol, 0.1 mg/mL BSA, 2 mM DTT; 25 C; 0.0125-409.6 nM protein
Conditions: tags: N-His6-TEV cleaved; C-SNAP kept, Cy3B-labelled; label: tethered on chip by stalled RNA polymerase
Kd values, listed per item

Before answering, review these 6 worked examples.
- binder: "ACAAACAUACACUUAUUAGGACAAAC (ssRNA) [Id_ii_S3_P5E.4_K5.3_C5.2_[C-2A]_H5.3_A5.1_F5.1_T5.2_[T11G]_[A12G]]"
  Kd: "> 2300 nM"
- binder: "Ib_S2_P3E.1_K3.1_C3.1_H3.1_[A4C]_A3.1_[A6G]_F3.1_T3.1 (ssRNA) RNA: UUUGAUUAAUAUGAUAUCGUUCUUUCUUGUCUGUAUUCUUUCUCGAUAUCAUAUUAAUCUUU"
  Kd: "40.8 nM"
- binder: "UCUCUUUGUAACUUGUCUCUU (ssRNA) [Ic_S1_P4E.1_K4.1_C4.1_H4.1_A4.1_[T5A]_[A6C]_F4.1_[A9G]_T4.1]"
  Kd: "62.5 nM"
- binder: "UCUCUUCGCUGUAUAUAUAUCUCUU (ssRNA) [Id_i_S1_P3E.5_K3.1_C3.3_[T-3C]_[C-2G]_[T-1C]_H3.1_A3.1_F3.1_T3.2]"
  Kd: "8.53 nM"
- binder: "UCUCUUUGUAUAUAUUAGCUCUCUU (ssRNA) [Id_ii_S1_P4E.3_K4.2_C4.2_[C-2T]_[T-1G]_H4.2_A4.1_F4.1_T4.2_[T11C]]"
  Kd: "3.46 nM"
- binder: "UCUCUUCUUAUAUUAUUACUUCUCUU (ssRNA) [Id_ii_S1_P5E.3_K5.2_C5.2_H5.2_A5.1_F5.1_T5.2_[T11C]_[A12T]]"
  Kd: "439 nM"

Shifting focus to the binder that follows.
Would you kindly share the measured Kd for Id_ii_S2_P3E.3_K3.2_C3.2_[T-1A]_H3.2_A3.1_F3.1_T3.2_[T9G]_[A10T] (ssRNA) RNA: UUUGAUUAAUAUGAUAUCGUUCUUUCUCAUAUAUAUAGUUUCUUUCUCGAUAUCAUAUUAAUCUUU ?
447 nM
